The measurements presented in this section are drawn from PubChem BioAssay (NCI).

- System: SF-295 CNS
- test-name: NCI tumour cell line growth inhibition, 48 h
Reported TGI values for a set of molecules

// below: answered molecules
{"molecule": "COC(=O)c1ccc(C)cc1C1CN=NC12Cc1cccc(C)c1C2=O (stereo not drawn)", "TGI": "> 100 µM"}
{"molecule": "CCOP(=O)(OCC)C(c1ccccc1)N(C(=O)NC(F)(F)F)c1ccc(C)cc1 (stereo not drawn)", "TGI": "> 100 µM"}

In the following, a different molecule is considered.
Measured TGI for this entry NCCCNCCSP(=O)(O)O on SF-295 CNS: > 750 µM

* * *

Reported TGI values for a set of molecules
- Tested on: PC-3 prostate
- test-name: NCI tumour cell line growth inhibition, 48 h

{"molecule": "O=Cc1c2c(cc3c1CC1(C3)Cc3cc4c(c(C=O)c3C1)CCC4)CCC2", "result": "> 100 µM"}

Looking up C=CCCCN(C(=O)c1ccccc1)c1ccc(C(=O)OC)o1 , I see its TGI listed as > 100 µM

Looking up O=C(NCc1cn(Cc2cccc(Oc3ccccc3)c2)nn1)c1cccnc1NCc1ccc(Cl)cc1 , I see its TGI listed as > 100 µM

Looking up CC(C)(C)c1cc(C(C)(C)C)c(SC2OC(CO)C(O)C(O)C2O)c(O)c1O (configuration not stated) , I see its TGI listed as 28.3 µM

Looking up CCOC(=O)/C=C/c1ccc([N+](=O)[O-])o1 , I see its TGI listed as 39.9 µM

Looking up COC1OC(C)/C(=N/O)C2OC(C)(C)OC12 (configuration not stated) , I see its TGI listed as > 100 µM

Looking up COc1ccc(C2C3=C(COC3=O)Oc3cc4c(cc32)OCO4)cc1OC (configuration not stated) , I see its TGI listed as > 31.3 µM
